Tested on: Escherichia coli TOP10;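 note: peptides expressed intracellularly from a pBAD plasmid library in pooled LB shake-flask culture, induced with 0.3% L-arabinose, DNA abundance read by NGS, three biological replicates, DESeq2 with apeglm shrinkage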
assay_comment: shrunken log2 fold change of peptide-encoding DNA abundance (4.5 h post-induction vs induction); higher = less antimicrobial activity (less host growth inhibition)
experimental_setup: time post-induction: 4.5 h; library: site-saturation at positions 5, 18, 19, 20
Outcome: criterion met for shrunken log2 fold change of at least 0.08; criterion not met for anything lower.

sequence_record | qualitative_label
RRIRQRPPRLPRPRPRPPYEPRP | criterion not met
RRIRKRPPRLPRPRPRPHISPRP | criterion not met
RRIRCRPPRLPRPRPRPFEHPRP | criterion not met
RRIRHRPPRLPRPRPRPGLGPRP | criterion met
RRIRTRPPRLPRPRPRPFTDPRP | criterion not met
RRIRYRPPRLPRPRPRPEHDPRP | criterion met

In plain terms: is recorded shrunken log2 fold change at least 0.08 for RRIRPRPPRLPRPRPRPHFKPRP ? criterion met

Same lookup for RRIRLRPPRLPRPRPRPSAWPRP , please. criterion not met

Same lookup for RRIRSRPPRLPRPRPRPAPMPRP , please. criterion met
